Experiment: AUC (0 to infinity) in ICR mouse at 5 mg/kg, iv by LC-MS/MS analysis
Assay type: ADME, organism-based
Conditions: in vivo
readout.name: AUC(0-inf) (ng·h/mL)
One number for each entry, in ng·h/mL.

Task item: Assign AUC(0-inf) to the following record: Cc1ncccc1C(=O)Nc1nc2cc(C(N)=O)ccc2n1CCCCNC(=O)OC(C)(C)C
Reply: 900

====

Assay: Stability in human plasma assessed as remaining activity at 5 uM incubated for 4 hrs by LC-MS/MS analysis
Format: ADME, cell-free
Conditions: read-out: Stability
readout.name: remaining at 4 h, 5 µM

Task item: Assign remaining at 4 h, 5 µM to the following record: Cc1ncccc1C(=O)Nc1nc2cc(C(N)=O)ccc2n1CCCCNC(=O)OC(C)(C)C
Reply: > 99.9%
